# protocol_details: Half life in ICR mouse at 15 mg/kg, po measured upto 24 hrs by LC-MS/MS analysis
# Assay type: ADME, organism-based
# stated_conditions: in vivo
property: half-life (h)
Express it in h; write the number only.

Prompt line: Item under review: CN1CCCC1CN1CCn2cc(-c3ccccc3)nc2[C@@H]1CC1CCCCC1 (stereo partly specified) . Reported half-life?
Response line: 2.4

---

# protocol_details: Oral bioavailability in mouse
# Assay type: ADME, organism-based
# stated_conditions: in vivo
property: bioavailability

Prompt line: Please give the measured bioavailability for this compound: C[C@H](NC(=O)c1ccc2c(-c3ccc(C(F)(F)F)cc3)cccc2c1)c1ccccn1
Response line: ≥ 75%

Prompt line: What about CNS(=O)(=O)c1ccc(Nc2ccc(C(F)(F)F)cc2)c(-c2cn(C)cn2)c1 ?
Response line: ≥ 75%

---

# Tested on: U-87 MG
# protocol_details: Antiproliferative activity against human U87 cells incubated for 48 hrs by CCK8 assay
# Type: functional, cell-based, U-87MG ATCC
property: pIC50
Remember the convention: pIC50 equals -log10 of concentration in molar.

Prompt line: Form field: reported pIC50 of CN(C)CCCN1c2ccccc2CCc2ccccc21 [IMIPRAMINE]
Response line: 4.88

---

# protocol_details: Antiproliferative activity against human FLO-1 cells incubated for 72 hrs by MTS assay
# Type: functional, cell-based
# stated_conditions: FLO-1, 72 h
property: IC50

Prompt line: What does the data say about its IC50? Entry: O=S(=O)(c1ccc2c(c1)C(=NO)c1cc(S(=O)(=O)N3CCCCC3)ccc1-2)N1CCCCC1
Response line: < 1000 nM

---

# System: LN-229
# protocol_details: Antiproliferative activity against LN-229 cells incubated for 48 hrs by CCK8 assay
# Assay type: functional, cell-based
# stated_conditions: Homo sapiens, LN-229, 48 h
property: IC50 (µM)
Output spec: scalar in µM, unitless text.

Prompt line: Look up IC50: CN(C)CCCN1c2ccccc2CCc2ccccc21 [IMIPRAMINE]
Response line: 153

---

# Tested on: NCI-H460
# protocol_details: Antiproliferative activity against human NCI-H460 cells incubated for 48 hrs by SRB assay
# Format: functional, cell-based
# stated_conditions: NCI-H460, 48 h
property: pIC50
API: returns pIC50 as number; meaning -log10 of concentration in mol/L.

Prompt line: Quick one: pIC50 of C[C@H]1[C@H](OC(=O)CCC(=O)O)O[C@@H]2O[C@@]3(C)CC[C@H]4[C@H](C)CC[C@@H]1[C@@]24OO3 [ARTESUNATE] ?
Response line: 4.79

---

# target_or_test_system: YAP1-TEAD4 (Homo sapiens, UniProt Q15561)
# Sequence (P46937 whole entry, the tested form may be a part): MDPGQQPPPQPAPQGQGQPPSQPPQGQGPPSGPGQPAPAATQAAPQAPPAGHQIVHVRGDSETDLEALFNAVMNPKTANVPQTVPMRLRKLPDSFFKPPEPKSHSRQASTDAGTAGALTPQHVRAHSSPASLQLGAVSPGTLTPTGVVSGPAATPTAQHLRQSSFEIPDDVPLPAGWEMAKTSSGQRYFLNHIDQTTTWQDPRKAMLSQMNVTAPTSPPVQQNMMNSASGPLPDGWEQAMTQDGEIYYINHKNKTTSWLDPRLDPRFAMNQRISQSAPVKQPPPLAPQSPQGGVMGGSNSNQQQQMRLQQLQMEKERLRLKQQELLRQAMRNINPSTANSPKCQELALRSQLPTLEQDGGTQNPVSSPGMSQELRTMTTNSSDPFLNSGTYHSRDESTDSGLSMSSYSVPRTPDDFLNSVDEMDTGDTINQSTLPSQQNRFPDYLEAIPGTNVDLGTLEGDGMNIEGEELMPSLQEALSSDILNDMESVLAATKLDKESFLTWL
# Sequence (Q15561 whole entry, the tested form may be a part): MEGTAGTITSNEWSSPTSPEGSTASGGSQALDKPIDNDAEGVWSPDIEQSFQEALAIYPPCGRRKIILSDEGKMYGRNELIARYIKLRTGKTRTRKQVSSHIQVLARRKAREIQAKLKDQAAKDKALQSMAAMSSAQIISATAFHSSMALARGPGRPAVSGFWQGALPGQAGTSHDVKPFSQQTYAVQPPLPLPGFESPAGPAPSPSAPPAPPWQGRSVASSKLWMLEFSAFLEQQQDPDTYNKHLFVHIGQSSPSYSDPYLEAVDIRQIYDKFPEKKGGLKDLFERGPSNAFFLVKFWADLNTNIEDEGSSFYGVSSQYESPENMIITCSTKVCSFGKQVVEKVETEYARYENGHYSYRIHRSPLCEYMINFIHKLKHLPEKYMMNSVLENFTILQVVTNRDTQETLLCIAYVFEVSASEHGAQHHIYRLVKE
# protocol_details: Inhibition of N-terminal GST-tagged TEAD4 (217 to 434 residues) (unknown origin) expressed in Escherichia coli BL21(DE3) cells to YAP1 (unknown origin) protein protein interaction preincubated for 24 hrs followed by Fam-YAP(60 to 99) addition by plate reader assay
property: EC50 (µM)
Entry rule: numbers only, all in µM.

Prompt line: Give the reported EC50 for O=C(CCl)c1ccccc1Nc1cccc(C(F)(F)F)c1 (system: YAP1-TEAD4 (Homo sapiens, UniProt Q15561)).
Response line: 5.9

---

# protocol_details: Antiproliferative activity against […] cells incubated for 48 hrs by CCK8 assay
# Format: functional, cell-based
# stated_conditions: U373 MG
property: pIC50
Please express pIC50 as -log10 of the molar concentration.

Prompt line: # get_value(readout='pIC50', item= CN(C)CCCN1c2ccccc2CCc2ccccc21 )
Response line: 3.46

---

# System: SW1990
# protocol_details: Antiproliferative activity against human SW1990 cells incubated for 48 hrs by MTT assay
# Type: functional, cell-based
# stated_conditions: SW1990, 48 h
property: IC50

Prompt line: // lookup IC50 for COc1ccc(C(=O)O[C@H]2C=COC=C3[C@@H](O)[C@]45S[C@@H](C(=O)N4[C@@H]32)N(C)C5=O)cc1Oc1cc(C=O)ccc1O
Response line: < 4 µM

---

# Tested on: C8161
# protocol_details: Antiproliferative activity against human C8161 cells incubated for 72 hrs by alamar blue staining based assay
# Assay type: functional, cell-based
# stated_conditions: C8161, 72 h
property: pIC50
Convention used: pIC50 is expressed as -log10 of the molar concentration.

Prompt line: State the recorded pIC50 for this entry: CC(C)[C@]12O[C@H]1[C@@H]1O[C@@]13[C@@]1(C)CCC4=C(COC4=O)[C@@H]1C[C@@H]1O[C@@]13C2=O [TRIPTONIDE]
Response line: 8.25

---

# Test system: HGC-27
# protocol_details: Antiproliferative activity against human HGC-27 cells incubated for 48 hrs by MTT assay
# Assay type: functional, cell-based
# stated_conditions: HGC-27, 48 h
property: IC50 (nM)
Expressed in nM, but write only the number.

Prompt line: What IC50 appears in the records for this compound with HGC-27? COc1ccc(S(=O)(=O)N(Cc2nc(C)c3ccccc3n2)c2cc(OC)c(OC)c(OC)c2)cc1
Response line: 460

---

# System: A549
# protocol_details: Antiproliferative activity against human A549 cells incubated for 48 hrs by SRB method
# Assay type: functional, cell-based
# stated_conditions: A549, 48 h
property: pIC50
Notebook: values listed as pIC50 are -log10 of the concentration (mol/L).

Prompt line: Using the record for Cc1cc2c(C(C)C)c(O)c(O)c(C=O)c2c(O)c1-c1c(C)cc2c(C(C)C)c(O)c(O)c(C=O)c2c1O , report its pIC50.
Response line: 5.00

---

# System: SU.86.86
# protocol_details: Antiproliferative activity against human SU-86-86 cells incubated for 48 hrs by MTT assay
# Assay type: functional, cell-based
# stated_conditions: SU.86.86, 48 h
pIC50: −log10 of the molar value.
property: pIC50

Prompt line: What pIC50 value was documented for this compound, COc1ccc(C(=O)O[C@H]2C=COC=C3[C@@H](O)[C@]45S[C@@H](C(=O)N4[C@@H]32)N(C)C5=O)cc1Oc1cc(C=O)ccc1O ?
Response line: > 5.40

---

# protocol_details: Half-life in mouse
# Assay type: ADME, organism-based
# stated_conditions: in vivo
Assign half-life to each entry below.

Prompt line: Fill in the blank: the reported half-life of C[C@H](NC(=O)c1ccc2c(-c3ccc(C(F)(F)F)cc3)cccc2c1)c1ccccn1 is ____.
Response line: > 12 h

Prompt line: Please answer likewise for CNS(=O)(=O)c1ccc(Nc2ccc(C(F)(F)F)cc2)c(-c2cn(C)cn2)c1
Response line: > 12 h

---

# target_or_test_system: Transcriptional enhancer factor TEF-3 (Homo sapiens)
# Sequence (Q15561 whole entry): as the sequence (Q15561 whole entry, the tested form may be a part) above
property: pIC50
// pIC50 is dimensionless: -log10 of concentration (M)

Prompt line: # get_value(readout= pIC50, system= Transcriptional enhancer factor TEF-3 (Homo sapiens)) for CCOc1ccc(CN2CCCC(C(=O)c3cccc(C(F)(F)F)c3)C2)cc1CO (stereo unspecified)
Response line: 5.89

---

# Tested on: NCI-H28
# protocol_details: Antiproliferative activity against human NCI-H28 cells
# Format: functional, cell-based
pIC50: −log10 of the molar value.
property: pIC50

Prompt line: What measured pIC50 is associated with C[C@H](NC(=O)c1ccc2c(-c3ccc(C(F)(F)F)cc3)cccc2c1)c1ccccn1 on NCI-H28?
Response line: < 5.52

Prompt line: Now the molecule CNS(=O)(=O)c1ccc(Nc2ccc(C(F)(F)F)cc2)c(-c2cn(C)cn2)c1
Response line: < 5.52

---

# protocol_details: Inhibition of His-tagged TEAD3 (unknown origin) to YAP (unknown origin) protein-protein interaction preincubated for 30 mins followed by biotinylated YAP addition and measured after 60 mins by TR-FRET assay
# Set-up: species or system Homo sapiens
Please go through the items and note down their IC50.
Please make sure the unit comes right after the number.

Prompt line: What value of measured IC50 is listed for N#C[C@@H]1CCN(C(=O)c2cnn3c(=O)cc(-c4ccc(C5CCCCC5)cc4)[nH]c23)C1 ?
Response line: 50 nM

Prompt line: Next record, please: O=C(c1c(-c2cnccn2)nn2c(=O)cc(-c3ccc(C4CCCCC4)cc3)[nH]c12)N1CC(CF)C1
Response line: 110 nM

Prompt line: Thanks! And CCOC(=O)c1cnn2c(=O)cc(-c3ccc(C(F)(F)F)cc3)[nH]c12 ?
Response line: 1400 nM

Prompt line: Consider next the compound Cc1nccnc1-c1nn2c(=O)cc(-c3ccc(C4CCCCC4)cc3)[nH]c2c1C(=O)N1CC(CF)C1 in the same way.
Response line: 90 nM

---

# System: MDA-MB-453
# protocol_details: Antiproliferative activity against human MDA-MB-453 cells incubated for 96 hrs by MTT assay
# Format: functional, cell-based
# stated_conditions: MDA-MB-453, 96 h
property: IC50

Prompt line: Look at this molecule and give its reported IC50. Cc1ccc(Nc2nccc(N(C)c3ccc4c(C)n(C)nc4c3)n2)cc1S(N)(=O)=O [PAZOPANIB]
Response line: ≤ 10 µM
